Origin of measurements: the kinase profiling compilation of Christmann-Franck et al. (2016)

Listed next: entries and their corresponding residual activity.
Biological target: UniProt P78362
Sequence (P78362 whole entry, looked up): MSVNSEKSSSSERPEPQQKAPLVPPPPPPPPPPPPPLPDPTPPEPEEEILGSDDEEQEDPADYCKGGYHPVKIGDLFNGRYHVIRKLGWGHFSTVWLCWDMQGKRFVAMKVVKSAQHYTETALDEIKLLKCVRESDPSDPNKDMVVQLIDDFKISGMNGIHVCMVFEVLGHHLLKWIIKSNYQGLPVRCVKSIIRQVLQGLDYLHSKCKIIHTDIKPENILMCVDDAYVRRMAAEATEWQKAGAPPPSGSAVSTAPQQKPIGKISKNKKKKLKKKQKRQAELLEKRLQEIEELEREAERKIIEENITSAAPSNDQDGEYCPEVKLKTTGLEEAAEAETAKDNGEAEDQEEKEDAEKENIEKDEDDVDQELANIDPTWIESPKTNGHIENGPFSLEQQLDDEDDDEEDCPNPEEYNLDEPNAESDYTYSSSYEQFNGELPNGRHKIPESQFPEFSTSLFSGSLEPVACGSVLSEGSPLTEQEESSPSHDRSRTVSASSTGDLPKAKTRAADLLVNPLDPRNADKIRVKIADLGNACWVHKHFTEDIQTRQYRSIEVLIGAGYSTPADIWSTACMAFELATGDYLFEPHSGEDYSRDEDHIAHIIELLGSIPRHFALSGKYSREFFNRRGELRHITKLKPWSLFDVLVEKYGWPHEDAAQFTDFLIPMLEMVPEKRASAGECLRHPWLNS
Test: radiometric filter-binding kinase assay, Kinase HotSpot
Settings: compound 0.5 µM; ATP 10 µM
metricName: residual activity (%)

[[record]]
itemsmiles = "O=c1cc(N2CCOCC2)oc2c(-c3ccccc3)cccc12"
systemtested = "UniProt P78362"
metricname = "residual activity"
unittext = "%"
recordedmeasurement = 98.2

[[record]]
itemsmiles = "N#CCCc1ccc2c(c1)-c1[nH]c3ccc([N+](=O)[O-])cc3c1CC(=O)N2"
systemtested = "UniProt P78362"
metricname = "residual activity"
unittext = "%"
recordedmeasurement = 109

[[record]]
itemsmiles = "O=c1c2ccccc2[nH]c(=S)n1CCN1CCC(=C(c2ccc(F)cc2)c2ccc(F)cc2)CC1"
systemtested = "UniProt P78362"
metricname = "residual activity"
unittext = "%"
recordedmeasurement = 94.1

[[record]]
itemsmiles = "Cc1cc(Nc2nc(-c3ccccc3)nc3ccccc23)n[nH]1"
systemtested = "UniProt P78362"
metricname = "residual activity"
unittext = "%"
recordedmeasurement = 68.8

[[record]]
itemsmiles = "O=C(O)c1ccc2c3c1cccc3c(=O)n1c3ccccc3nc21"
systemtested = "UniProt P78362"
metricname = "residual activity"
unittext = "%"
recordedmeasurement = 89.3

[[record]]
itemsmiles = "N/C(=N\\N=C/c1ccc(-c2cccc([N+](=O)[O-])c2)o1)N[N+](=O)[O-]"
systemtested = "UniProt P78362"
metricname = "residual activity"
unittext = "%"
recordedmeasurement = 101

[[record]]
itemsmiles = "Cn1cc(/C=C2\\C(=O)Nc3ccc(S(N)(=O)=O)cc32)c2ccccc21"
systemtested = "UniProt P78362"
metricname = "residual activity"
unittext = "%"
recordedmeasurement = 51.4

[[record]]
itemsmiles = "COc1cc2ncnc(Nc3ccc(O)c(Br)c3)c2cc1OC"
systemtested = "UniProt P78362"
metricname = "residual activity"
unittext = "%"
recordedmeasurement = 63

[[record]]
itemsmiles = "O=c1c(-c2ccc(F)cc2)c(-c2ccncc2)[nH]n1-c1ccc(Cl)cc1"
systemtested = "UniProt P78362"
metricname = "residual activity"
unittext = "%"
recordedmeasurement = 94.4

[[record]]
itemsmiles = "COc1cccc(-c2cc(=O)c3ccccc3o2)c1N"
systemtested = "UniProt P78362"
metricname = "residual activity"
unittext = "%"
recordedmeasurement = 91.7

[[record]]
itemsmiles = "O=c1[nH]c2ccccc2n1C1CCN(Cc2ccc(-c3nc4cc5[nH]cnc5cc4nc3-c3ccccc3)cc2)CC1"
systemtested = "UniProt P78362"
metricname = "residual activity"
unittext = "%"
recordedmeasurement = 116

[[record]]
itemsmiles = "COc1cc2c(N3CCN(C(=O)Nc4ccc(OC(C)C)cc4)CC3)ncnc2cc1OCCCN1CCCCC1"
systemtested = "UniProt P78362"
metricname = "residual activity"
unittext = "%"
recordedmeasurement = 103

[[record]]
itemsmiles = "Nc1ncnc2c1cnn2-c1ccccc1"
systemtested = "UniProt P78362"
metricname = "residual activity"
unittext = "%"
recordedmeasurement = 104

